I'd appreciate it if you could supply MFI values for the items below.
Target: T1, human BLyS (full length, arginine to histidine at position 132) on CHO-K1 cells (human, UniProt Q9Y275 1-285)
T1 construct: also called hBLyS; CHO-K1 hBLyS
T1 sequence (Q9Y275 whole entry R130H): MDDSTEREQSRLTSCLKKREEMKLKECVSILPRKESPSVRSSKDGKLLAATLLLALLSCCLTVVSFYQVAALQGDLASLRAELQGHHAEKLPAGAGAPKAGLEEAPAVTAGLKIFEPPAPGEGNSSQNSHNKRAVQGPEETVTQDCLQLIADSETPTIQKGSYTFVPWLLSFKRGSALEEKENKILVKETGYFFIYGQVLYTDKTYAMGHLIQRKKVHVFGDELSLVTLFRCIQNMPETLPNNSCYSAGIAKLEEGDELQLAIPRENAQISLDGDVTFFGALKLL
Test: flow cytometry, CHO-K1 hBLyS cells, antibody 13.3 nM
Answers are plain numbers, in MFI.

Example entries and their recorded answers appear below.
>>> result_number("78C11D2D12 (antibody, V domains shown, Mouse hybridoma monoclonal antibody purified on Protein G) VH: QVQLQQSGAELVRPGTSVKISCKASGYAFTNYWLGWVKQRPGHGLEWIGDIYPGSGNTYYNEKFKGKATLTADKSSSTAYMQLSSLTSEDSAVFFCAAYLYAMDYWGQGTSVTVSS VL: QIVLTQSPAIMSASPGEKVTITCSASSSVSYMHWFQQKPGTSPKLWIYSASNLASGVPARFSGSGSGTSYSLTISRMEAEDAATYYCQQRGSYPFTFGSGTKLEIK")
336
>>> result_number("97A3C2H4 (antibody, V domains shown, Mouse hybridoma monoclonal antibody purified on Protein G) VH: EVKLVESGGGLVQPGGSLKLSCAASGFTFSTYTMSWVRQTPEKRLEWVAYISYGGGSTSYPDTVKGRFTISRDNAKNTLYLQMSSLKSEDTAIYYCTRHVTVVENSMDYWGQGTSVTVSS VL: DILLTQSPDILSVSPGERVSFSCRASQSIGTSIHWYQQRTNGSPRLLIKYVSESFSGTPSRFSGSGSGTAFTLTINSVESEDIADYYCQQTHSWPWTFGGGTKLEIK")
460

Lab note: next binder to report on.
Identify measured MFI associated with 97E7B3F2 (antibody, V domains shown, Mouse hybridoma monoclonal antibody purified on Protein G) VH: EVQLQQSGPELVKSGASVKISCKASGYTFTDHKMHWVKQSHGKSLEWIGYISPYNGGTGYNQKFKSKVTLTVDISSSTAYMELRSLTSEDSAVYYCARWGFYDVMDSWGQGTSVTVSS VL: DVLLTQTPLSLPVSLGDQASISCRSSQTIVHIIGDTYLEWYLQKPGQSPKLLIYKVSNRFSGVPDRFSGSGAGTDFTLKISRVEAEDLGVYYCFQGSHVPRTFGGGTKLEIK
349
